- Tested on: 10-12 kDa immunophilin
- Protocol description: Rotamase (peptidyl-prolyl cis-trans isomerase) assay, 10-12 kDa immunophilin
- Assay type: biochemical
- Design: key: no activity observed
- Stated conditions: rotamase activity with this peptide as substrate
Starred links: 1 amine or outer side, 2 acyl side, 3 side chain; linkers in the order of their positions; H or OH if unused. Residues, ends and D or L forms follow the SMILES beside them. *: point of attachment. pNA = O=[N+]([O-])c1ccc(N*)cc1; Suc = O=C(CCC(=O)[*:2])[*:1]

| Compound | kobs, 10-12 kDa |
| --- | --- |
| C[C@H](NC(=O)CCC(=O)O)C(=O)NCC(=O)N1CCC[C@H]1C(=O)N[C@@H](Cc1ccccc1)C(=O)Nc1ccc([N+](=O)[O-])cc1 [Suc--Ala--Gly--Pro--Phe--pNA] (Suc-AGPF-pNA) | a |
| C[C@H](NC(=O)CCC(=O)O)C(=O)N[C@@H](Cc1c[nH]cn1)C(=O)N1CCC[C@H]1C(=O)N[C@@H](Cc1ccccc1)C(=O)Nc1ccc([N+](=O)[O-])cc1 [Suc--Ala--His--Pro--Phe--pNA] (Suc-AHPF-pNA) | a |
| CC[C@H](C)[C@H](NC(=O)[C@H](C)NC(=O)CCC(=O)O)C(=O)N1CCC[C@H]1C(=O)N[C@@H](Cc1ccccc1)C(=O)Nc1ccc([N+](=O)[O-])cc1 [Suc--Ala--Ile--Pro--Phe--pNA] (Suc-AIPF-pNA) | 0.69 min^-1 |
